- System: Aedes aegypti mosquito
- Procedure Details: USDA Petri Dish Method, 3 min exposure to dipped fiberglass window screen
- Type: in vivo
- Measurement Context: 3 min; Table 39, permethrin without adjuvant (Permanone 40), dipped screen, 3 min exposure
Measurement Label: Average % Knockdown & Mortality after 3 min (%)
Return type: number; implicit unit %.

Some solved entries appear below for comparison.
CC1(C)C(C=C(Cl)Cl)C1C(=O)OCc1cccc(Oc2ccccc2)c1 (centres unmarked) [Permethrin (5%)]    75
CC1(C)C(C=C(Cl)Cl)C1C(=O)OCc1cccc(Oc2ccccc2)c1 (centres unmarked) [Permethrin (1.0%)]    0
CC1(C)C(C=C(Cl)Cl)C1C(=O)OCc1cccc(Oc2ccccc2)c1 (centres unmarked) [Permethrin (1.5%)]    0
CC1(C)C(C=C(Cl)Cl)C1C(=O)OCc1cccc(Oc2ccccc2)c1 (centres unmarked) [Permethrin (2.5%)]    56
CC1(C)C(C=C(Cl)Cl)C1C(=O)OCc1cccc(Oc2ccccc2)c1 (centres unmarked) [Permethrin (1.25%)]    46
CC1(C)C(C=C(Cl)Cl)C1C(=O)OCc1cccc(Oc2ccccc2)c1 (centres unmarked) [Permethrin (1.75%)]    40
CC1(C)C(C=C(Cl)Cl)C1C(=O)OCc1cccc(Oc2ccccc2)c1 (centres unmarked) [Permethrin (0.1%)]    0

Proceed to the following item.
## Input I'd like to know its Average % Knockdown & Mortality after 3 min. The molecule in question is CC1(C)C(C=C(Cl)Cl)C1C(=O)OCc1cccc(Oc2ccccc2)c1 (centres unmarked) [Permethrin (0.5%)]
## Output 0

###

Form field: Average % Knockdown & Mortality after 3 hr (one value per entry).
- System: bait averse/resistant German cockroach (T-164 strain)
- Procedure Details: Knockdown/mortality of male cockroaches under continuous exposure on treated glazed tile
- Format: in vivo, Blattella germanica
- Measurement Context: 3 hr; Table 23, imidacloprid/tritylchloride in acetone, glazed tile, T-164 strain
Give a bare numeral; the unit % is implied.

ClC(c1ccccc1)(c1ccccc1)c1ccccc1 [Tritylchloride (0.1%)]    0
ClC(c1ccccc1)(c1ccccc1)c1ccccc1 [Tritylchloride (1%)]    0
ClC(c1ccccc1)(c1ccccc1)c1ccccc1 [Tritylchloride (5%)]    0

Here is another compound to look at.
## Input Data request, read-out Average % Knockdown & Mortality after 3 hr, for O=[N+]([O-])NC1=NCCN1Cc1ccc(Cl)nc1
## Output 7

###

- System: tropical house mosquito Culex quinquefasciatus (adults, 3 days old)
- Procedure Details: Efficacy of formulations on surfaces (glazed/unglazed tiles, plywood), ten 3 day old mosquitoes, 3 min exposure
- Type: in vivo
- Measurement Context: 3′; in acetone on glazed tiles; Table 84
Measurement Label: % KD and Mortality (%)
Kindly provide the numeric value in % only, without the unit symbol.

Consider the reported % KD and Mortality for these compounds:
O=C(CCCCCCCCC(=O)OCc1ccccc1)OCc1ccccc1 [1% Sebacic acid dibenzyl ester]    0
O=C(O)CCCCCCCCC(=O)O [1% Sebacic acid]    3
CC1(C)CC(O)CC(C)(C)N1[O]    0
O=C(CCCCCCCCC(=O)ON1C(=O)CCC1=O)ON1C(=O)CCC1=O    0
CNC(=O)Oc1cccc2c1OC(C)(C)O2 [0.1% bendiocarb]    0

## Input What % KD and Mortality value was documented for this compound, CCCCCCCCON1C(C)(C)CC(OC(=O)CCCCCCCCC(=O)OC2CC(C)(C)N(OCCCCCCCC)C(C)(C)C2)CC1(C)C ?
## Output 3

## Input Give the measured % KD and Mortality of CN1C(C)(C)CC(O)CC1(C)C [1% 1,2,2,6,6-Pentamethyl-4-piperidinol] .
## Output 0

## Input Which measured % KD and Mortality value corresponds to COC(=O)CCCCCCCCC(=O)OC [1% Dimethyl sebacate] ?
## Output 0

## Input Could you share which % KD and Mortality value was measured for CC1(C)CC(O)CC(C)(C)N1 ?
## Output 0

## Input Param item = CC1(C)CC(OC(=O)CCCCCCCCC(=O)OC2CC(C)(C)NC(C)(C)C2)CC(C)(C)N1 ; retrieve measured % KD and Mortality.
## Output 0

###

- System: malaria mosquito (Anopheles gambiae)
- Procedure Details: Five-minute exposure bioassay, WHO Adult Mosquito Susceptibility Test Kit, treated filter paper
- Type: in vivo
- Measurement Context: Table 80, filter paper (mg/m^2), 10′
Measurement Label: % knock down after 10′

Recorded % knock down after 10′, per entry:
CC1(C)[C@H](C(=O)O[C@H](C#N)c2cccc(Oc3ccccc3)c2)[C@@H]1C=C(Br)Br [40 mg DTM]    53%
CNC(=O)Oc1cccc2c1OC(C)(C)O2 [40 mg bendiocarb]    50%
CC1(C)[C@H](C(=O)O[C@H](C#N)c2cccc(Oc3ccccc3)c2)[C@@H]1C=C(Br)Br [5 mg DTM]    6%

## Input Entry CC1(C)C(C=C(Br)Br)C1C(=O)OC(C#N)c1cccc(Oc2ccccc2)c1 (stereo not shown) [20 mg DTM] has what % knock down after 10′?
## Output 23%

###

Below, each of the molecules is paired with its reported Average % Knockdown & Mortality after 4 hr value.
- System: Argentine ant, Linepithema humile
- Procedure Details: Knockdown/mortality of ant workers under continuous exposure on treated glazed tile
- Measurement Context: 4 hr; Table 25, imidacloprid/dibutyl sebacate (DBS) in acetone, glazed tile
Give the value in % but do not write % after it.

Sample answers from the record:
CCCCOC(=O)CCCCCCCCC(=O)OCCCC [DBS (1%)]    77
O=[N+]([O-])NC1=NCCN1Cc1ccc(Cl)nc1    0

## Input What value of measured Average % Knockdown & Mortality after 4 hr is listed for CCCCOC(=O)CCCCCCCCC(=O)OCCCC [DBS (5%)] ?
## Output 100

## Input I'd like to know its Average % Knockdown & Mortality after 4 hr. The molecule in question is CCCCOC(=O)CCCCCCCCC(=O)OCCCC [DBS (0.1%)]
## Output 9

###

- System: Musca domestica, susceptible strain WHO(N)
- Procedure Details: Topical insecticide application to houseflies
- Type: in vivo
- Measurement Context: 1 d, 0.5 μl per fly, % a.i. conc. in acetone, Table 95
- Method: Male Musca domestica, susceptible strain WHO(N), or other strains were used. The flies were anaesthetized with CO2, and ten individuals were positioned (on their back) on a filter paper which was on the top of a carbon dioxide emitting device. […] Afterwards the insects were transferred into a beaker closed by a gauze lid with a water saturated cotton pad on the top. At regular intervals, mortality was recorded (cumulatively).
Measurement Label: % Mortality after (%)
Please reply with the bare figure in % and do not write the unit itself.

Solved cases (3 shown):
CC1(C)C(C=C(Br)Br)C1C(=O)OC(C#N)c1cccc(Oc2ccccc2)c1 (stereo not shown) [0.000128% DTM]    50
CC1(C)[C@H](C(=O)O[C@H](C#N)c2cccc(Oc3ccccc3)c2)[C@@H]1C=C(Br)Br [0.00064% DTM]    80
Cc1ccc(O)c(-n2nc3ccccc3n2)c1 [0.5% Compound B]    60

## Input Returns the measured % Mortality after for the input molecule. Input: CC1(C)[C@H](C(=O)O[C@H](C#N)c2cccc(Oc3ccccc3)c2)[C@@H]1C=C(Br)Br [0.0000256% DTM]
## Output 60

###

Average % Knockdown & Mortality after 5 hr by entry:
- Tested on: Argentine ant, Linepithema humile
- Procedure Details: Knockdown/mortality of ant workers under continuous exposure on treated glazed tile
- Measurement Context: 5 hr; Table 22, imidacloprid/tritylchloride in acetone, glazed tile, continuous exposure
API: value field is a number in %; no unit string.

ClC(c1ccccc1)(c1ccccc1)c1ccccc1 [Tritylchloride (0.1%)]    0
O=[N+]([O-])NC1=NCCN1Cc1ccc(Cl)nc1    4

## Input Look up Average % Knockdown & Mortality after 5 hr for this compound: ClC(c1ccccc1)(c1ccccc1)c1ccccc1 [Tritylchloride (1%)]
## Output 0

## Input Request the reported Average % Knockdown & Mortality after 5 hr associated with ClC(c1ccccc1)(c1ccccc1)c1ccccc1 [Tritylchloride (5%)]
## Output 0

###

- System: tropical house mosquito Culex quinquefasciatus (adults, 3 days old)
- Procedure Details: Efficacy of formulations on surfaces (glazed/unglazed tiles, plywood), ten 3 day old mosquitoes, 3 min exposure
- Assay type: in vivo
- Measurement Context: 3 h; in acetone on glazed tiles; Table 84
Measurement Label: % KD and Mortality (%)
The response must be a number in % with no trailing unit.

Observe how each entry below is paired with its result.
CN1C(C)(C)CC(O)CC1(C)C [1% 1,2,2,6,6-Pentamethyl-4-piperidinol]    0
CC1(C)CC(OC(=O)CCCCCCCCC(=O)OC2CC(C)(C)NC(C)(C)C2)CC(C)(C)N1    3
CCCCCCCCON1C(C)(C)CC(OC(=O)CCCCCCCCC(=O)OC2CC(C)(C)N(OCCCCCCCC)C(C)(C)C2)CC1(C)C    3
CNC(=O)Oc1cccc2c1OC(C)(C)O2 [0.1% bendiocarb]    80
O=C(CCCCCCCCC(=O)OCc1ccccc1)OCc1ccccc1 [1% Sebacic acid dibenzyl ester]    3

## Input What does the record list as % KD and Mortality for O=C(O)CCCCCCCCC(=O)O [1% Sebacic acid] ?
## Output 3
